Tested on: HCMV
ASSAY NAME: HCMV multistep growth in serum-starved human fibroblasts, cell-free virus by TCID50
Type: cell-based, human cytomegalovirus
STATED CONDITIONS: Human betaherpesvirus 5, Fibroblast, 192 h, read-out: IC50 for blocking production of HCMV progeny
PARAMETER: IC50

Report IC50 for CCC(=O)N1CCN(c2ccc(-n3c(=O)ccc4cnc5ccc(-c6cnc7ccccc7c6)cc5c43)cc2C(F)(F)F)CC1 ~0.06 µM
